Experiment: Plasma stability, human plasma
Conditions: 1 μM, 37° C., 4 hours
Protocol: For metabolic stability, plasma from dog, monkey, swine and human were used. For stability, prodrugs (1 μM) were spiked in respective solutions and incubated in an orbital shaker at 37° C. […] Prodrug disappearance was monitored over time using a liquid chromatography and tandem mass spectrometry (LC-MS/MS). […] For quantification of compound remaining, disappearance of prodrugs was measured from ratio of peak areas of analyte to IS.
parameter measured: plasma stability (compound remaining)

{"molecule": "CC(=O)N[C@@H](Cc1c[nH]c2ccccc12)C(=O)N[C@@H](CCC(=O)C=[N+]=[N-])C(=O)OC(C)C [Reference compound A, reference compound]", "result": "substantially intact"}
{"molecule": "CO[C@@H](C)C(=O)N[C@@H](CCC(=O)C=[N+]=[N-])C(=O)OC(C)C", "result": "substantially intact"}
{"molecule": "CO[C@@H](C)C(=O)N[C@@H](CCC(=O)C=[N+]=[N-])C(=O)SC(C)C", "result": "substantially intact"}
{"molecule": "CO[C@@H](CCSC)C(=O)N[C@@H](CCC(=O)C=[N+]=[N-])C(=O)OC(C)C", "result": "substantially intact"}
